# Assayed System: Free fatty acid receptor 1 (Homo sapiens, UniProt O14842)
# Sequence (O14842 whole entry): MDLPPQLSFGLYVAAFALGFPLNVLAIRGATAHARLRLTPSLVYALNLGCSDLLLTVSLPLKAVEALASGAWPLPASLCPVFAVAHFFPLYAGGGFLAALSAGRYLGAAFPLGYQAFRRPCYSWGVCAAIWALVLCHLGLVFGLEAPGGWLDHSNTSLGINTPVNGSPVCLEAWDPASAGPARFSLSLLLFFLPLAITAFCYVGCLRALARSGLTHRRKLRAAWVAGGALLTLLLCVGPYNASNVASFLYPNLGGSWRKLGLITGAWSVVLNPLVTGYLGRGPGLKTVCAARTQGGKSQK
# Test Method Notes: Agonist activity at human […] receptor expressed in CHO cells assessed as increase in intracellular calcium concentration after 90 secs by FLIPR assay in presence of 0.1% BSA
Readout Label: EC50 (nM)
Answers are plain numbers, in nM.

Cc1cccc(C)c1-c1cc(COc2ccc3c(c2)OCC3CC(=O)O)ccc1OCc1ccccc1 (stereo not drawn)	10
CCOCCOc1cc(C)c(-c2cccc(CNc3ccc4c(c3)OCC4CC(=O)O)c2)c(C)c1 (stereo not drawn)	48
CCOCCOc1cc(C)c(-c2cccc(COc3ccc4c(c3)CCC(C(=O)O)C4)c2)c(C)c1 (stereo not drawn)	140
Cc1cccc(C)c1-c1cccc(COc2ccc3c(CC(=O)O)coc3c2)c1	4900
CCOCCOc1cc(C)c(-c2cccc(COc3ccc4c(c3)CCC(CC(=O)O)C4)c2)c(C)c1 (stereo not drawn)	510

Fill in EC50 for each of the 4 compounds listed.
1. Cc1cccc(C)c1-c1cccc(COc2ccc3c(n2)CCC3CC(=O)O)c1 (stereo not drawn)
2. Cc1cccc(C)c1-c1cccc(COc2ccc3c(c2)CC3CC(=O)O)c1 (stereo not drawn)
3. Cc1ccc(-c2cccc(COc3ccc4c(c3)OCC4CC(=O)O)c2)c(C)c1 (stereo not drawn)
4. CCOCCOc1cc(C)c(-c2cccc(COc3ccc4c(c3)CC(CC(=O)O)C4)c2)c(C)c1 (stereo not drawn)

Result ::
1. 570
2. 69
3. 29
4. 84

Take each entry in turn and give its EC50.
1. Cc1cccc(C)c1-c1cccc(COc2ccc3c(c2)OCC3CC(=O)O)c1 (stereo not drawn)
2. Cc1cc(OCc2ccccc2)cc(C)c1-c1cccc(COc2ccc3c(c2)OCC3CC(=O)O)c1 (stereo not drawn)
3. Cc1ccc2ccccc2c1-c1cccc(COc2ccc3c(c2)OCC3CC(=O)O)c1 (stereo not drawn)
4. Cc1cccc(C)c1-c1cccc(COc2ccc3c(c2)CCCCC3CC(=O)O)c1 (stereo not drawn)

Result ::
1: 27; 2: 28; 3: 21; 4: 940
